Assign MIC Values of Compounds, Streptococcus pneumoniae to each entry below.
- System: Streptococcus pneumoniae (PISP: ATCC 49619)
- Assay details: In vitro antibacterial activity, agar two times dilution method, MIC
- Format: cell-based
- Experimental setup: agar dilution; PISP ATCC 49619
Answers are plain numbers, in µg/mL.

Past entries and their recorded results:
compound="CCN(CC)Cc1c(O)cc2c(c1O)-c1cc(ccc1O)C1NC(=O)C3NC(=O)C(CC(N)=O)NC(=O)C(N4CN(C)C(CC(C)C)C4=O)C(O)c4ccc(c(Cl)c4)Oc4cc3cc(c4OC3OC(CO)C(O)C(O)C3OC3CC(C)(NCc4cccc(Br)c4)C(O)C(C)O3)Oc3ccc(cc3Cl)C(OC3CC(C)(N)C(O)C(C)O3)C(NC1=O)C(=O)NC2C(=O)O (stereo not drawn)" value_units=µg/mL quantitative_readout=0.25
compound="CNC(CC(C)C)C(=O)NC1C(=O)NC(CC(N)=O)C(=O)NC2C(=O)NC3C(=O)NC(C(=O)NC(C(=O)O)c4cc(O)c(CN5CCOCC5)c(O)c4-c4cc3ccc4O)C(OC3CC(C)(N)C(O)C(C)O3)c3ccc(c(Cl)c3)Oc3cc2cc(c3OC2OC(CO)C(O)C(O)C2OC2CC(C)(NCc3ccc(C(C)C)cc3)C(O)C(C)O2)Oc2ccc(cc2Cl)C1O (stereo not drawn)" value_units=µg/mL quantitative_readout=0.25

Attention now shifts to the item below.
Task: Any idea what MIC Values of Compounds, Streptococcus pneumoniae was measured for CNC(CC(C)C)C(=O)NC1C(=O)NC(CC(N)=O)C(=O)NC2C(=O)NC3C(=O)NC(C(=O)NC(C(=O)O)c4cc(O)c(CNCP(=O)(O)O)c(O)c4-c4cc3ccc4O)C(OC3CC(C)(N)C(O)C(C)O3)c3ccc(c(Cl)c3)Oc3cc2cc(c3OC2OC(CO)C(O)C(O)C2OC2CC(C)(N)C(O)C(C)O2)Oc2ccc(cc2Cl)C1O (stereo not drawn) ?
Result: 0.125
